- Tested on: V79 cells
- method-description: Uptake of additional phthalocyanines into V79 cells (Table 2)
- condition-set: 4 μM, 18 hours
endpoint-name: Uptake into V79 cells (n Moles/10^6 cells)
Report as a plain number; the unit n Moles/10^6 cells is understood.

>>> quantitative_readout("CN(C)CCC[Si](C)(C)O[Si]1(O)n2c3c4ccccc4c2N=C2N=C(N=c4c5ccccc5c(n41)=NC1=NC(=N3)c3ccccc31)c1ccccc12 (centres unmarked)")
4.6

Request: Look at this compound and give its reported Uptake into V79 cells. C[Si](C)(CCCCNC(=S)N[C@@H]1O[C@H](CO)[C@@H](O)[C@H](O)[C@H]1O)O[Si]1(O[Si](C)(C)CCCCNC(=S)N[C@@H]2O[C@H](CO)[C@@H](O)[C@H](O)[C@H]2O)n2c3c4ccccc4c2N=C2N=C(N=c4c5ccccc5c(n41)=NC1=NC(=N3)c3ccccc31)c1ccccc12
Response: 0.3

---

- Tested on: V79 cells
- method-description: Uptake of additional phthalocyanines into V79 cells (Table 2)
- condition-set: 1 μM, 18 hours
endpoint-name: Uptake into V79 cells (n Moles/10^6 cells)
Report as a plain number; the unit n Moles/10^6 cells is understood.

Consider the reported Uptake into V79 cells for these molecules:
>>> quantitative_readout("CN(C)CCC[Si](C)(C)O[Si]1(O)n2c3c4ccccc4c2N=C2N=C(N=c4c5ccccc5c(n41)=NC1=NC(=N3)c3ccccc31)c1ccccc12 (stereo not shown) [Compound IV, HOSiPcOsi(CH3)2)(CH2)3 N(CH3)2]")
0.7
>>> quantitative_readout("C[Si](C)(CCCN1CCSCC1)O[Si]1(O)n2c3c4ccccc4c2N=C2N=C(N=c4c5ccccc5c(n41)=NC1=NC(=N3)c3ccccc31)c1ccccc12 (stereo not shown) [Compound XXIV, HOSiPCOSi(CH3)2 (CH2)3 NC4 H8 S]")
0.003
>>> quantitative_readout("CCCCN(CCCC)CCC[Si](C)(C)O[Si]1(O)n2c3c4ccccc4c2N=C2N=C(N=c4c5ccccc5c(n41)=NC1=NC(=N3)c3ccccc31)c1ccccc12 (stereo not shown) [Compound XXV, HOSiPcOSi(CH3)2 (CH2)3 N(CH2)3 CH3)2]")
0.02

Now for a further molecule.
Request: Look at this molecule and give its reported Uptake into V79 cells. C[Si](C)(CCCCNC(=S)N[C@@H]1O[C@H](CO)[C@@H](O)[C@H](O)[C@H]1O)O[Si]1(O[Si](C)(C)CCCCNC(=S)N[C@@H]2O[C@H](CO)[C@@H](O)[C@H](O)[C@H]2O)n2c3c4ccccc4c2N=C2N=C(N=c4c5ccccc5c(n41)=NC1=NC(=N3)c3ccccc31)c1ccccc12 [Compound XI]
Response: 0.1

---

- Test system: V79 cells
- method-description: Uptake of additional phthalocyanines into V79 cells (Table 2)
- condition-set: 4 μM, 18 hours
endpoint-name: Uptake into V79 cells (n Moles/10^6 cells)
Report as a plain number; the unit n Moles/10^6 cells is understood.

>>> quantitative_readout("C[Si](C)(CCCN1CCSCC1)O[Si]1(O)n2c3c4ccccc4c2N=C2N=C(N=c4c5ccccc5c(n41)=NC1=NC(=N3)c3ccccc31)c1ccccc12 (stereo not drawn)")
1.3
>>> quantitative_readout("C[Si](C)(CCCO)O[Si]1(O)n2c3c4ccccc4c2N=C2N=C(N=c4c5ccccc5c(n41)=NC1=NC(=N3)c3ccccc31)c1ccccc12 (stereo not drawn)")
1.7

Now for a further compound.
Request: Please tell me: Uptake into V79 cells of CCCCCCCCCCCC[N+](C)(C)CCC[Si](C)(C)O[Si]1(O[Si](C)(C)CCC[N+](C)(C)CCCCCCCCCCCC)n2c3c4ccccc4c2N=C2N=C(N=c4c5ccccc5c(n41)=NC1=NC(=N3)c3ccccc31)c1ccccc12 , system V79 cells?
Response: 0.05

---

- Tested on: Chinese hamster V79-379 cells
- method-description: Clonogenic cell survival / photocytotoxicity in V79 cells (Table 1, FIG. 1, FIG. 2)
- Format: cell-based
- condition-set: 1.0 μM, 18 h; F10 = fluence reducing survival to 10%
Listing: F10 (AlPcCl)/F10 (Pc) of selected molecules
Keep it simple and answer with nothing but the number.

Consider the reported F10 (AlPcCl)/F10 (Pc) for these molecules:
>>> quantitative_readout("CN(C)CCC[Si](C)(C)O[Si]1(O)n2c3c4ccccc4c2N=C2N=C(N=c4c5ccccc5c(n41)=NC1=NC(=N3)c3ccccc31)c1ccccc12 (centres unmarked)")
4.25
>>> quantitative_readout("C[N+](C)(C)CCC[Si](C)(C)[O][Al-2]123[n]4c5c6ccccc6c4N=c4c6ccccc6c([n]41)=NC1=[N+]2C(=NC2=[N+]3C(=N5)c3ccccc32)c2ccccc21.I")
0.99
>>> quantitative_readout("C[N+](C)(C)CCC[Si](C)(C)O[Si]1(O)n2c3c4ccccc4c2N=C2N=C(N=c4c5ccccc5c(n41)=NC1=NC(=N3)c3ccccc31)c1ccccc12.[I-] (centres unmarked)")
0.59
>>> quantitative_readout("CN(C)CCC[Si](C)(C)[O][Al]1[n]2c3c4ccccc4c2N=C2N=C(N=c4c5ccccc5c([n]41)=NC1=NC(=N3)c3ccccc31)c1ccccc12")
0.94

Request: Look at this molecule and give its reported F10 (AlPcCl)/F10 (Pc). [Cl][Al]1[n]2c3c4ccccc4c2N=C2N=C(N=c4c5ccccc5c([n]41)=NC1=NC(=N3)c3ccccc31)c1ccccc12 [AlPcCl, chloroaluminum phthalocyanine, reference compound]
Response: 1.0

---

- Test system: V79 cells
- method-description: Uptake of additional phthalocyanines into V79 cells (Table 2)
- condition-set: 1 μM, 18 hours
endpoint-name: Uptake into V79 cells (n Moles/10^6 cells)
Report as a plain number; the unit n Moles/10^6 cells is understood.

Request: Look at this compound and give its reported Uptake into V79 cells. CCN(CC)c1ccc2c(c1)Oc1cc(N(CC)CC)ccc1C21c2ccccc2C(=O)N1CCCC[Si](C)(C)O[Si]1(O[Si](C)(C)C(C)(C)C)n2c3c4ccccc4c2N=C2N=C(N=c4c5ccccc5c(n41)=NC1=NC(=N3)c3ccccc31)c1ccccc12 (stereo not drawn)
Response: 0.01

Request: Look at this compound and give its reported Uptake into V79 cells. CCCCCCCCCCCC[N+](C)(C)CCC[Si](C)(C)O[Si]1(O[Si](C)(C)CCC[N+](C)(C)CCCCCCCCCCCC)n2c3c4ccccc4c2N=C2N=C(N=c4c5ccccc5c(n41)=NC1=NC(=N3)c3ccccc31)c1ccccc12
Response: 0.03

Request: Look at this compound and give its reported Uptake into V79 cells. C[Si](C)(CCCN1CCOCC1)O[Si]1(O)n2c3c4ccccc4c2N=C2N=C(N=c4c5ccccc5c(n41)=NC1=NC(=N3)c3ccccc31)c1ccccc12 (stereo not drawn)
Response: 0.3

---

- Test system: V79 cells
- method-description: Uptake of additional phthalocyanines into V79 cells (Table 2)
- condition-set: 4 μM, 18 hours
endpoint-name: Uptake into V79 cells (n Moles/10^6 cells)
Report as a plain number; the unit n Moles/10^6 cells is understood.

Consider the reported Uptake into V79 cells for these compounds:
>>> quantitative_readout("CCN(CC)c1ccc2c(c1)Oc1cc(N(CC)CC)ccc1C21c2ccccc2C(=O)N1CCCC[Si](C)(C)O[Si]1(O[Si](C)(C)C(C)(C)C)n2c3c4ccccc4c2N=C2N=C(N=c4c5ccccc5c(n41)=NC1=NC(=N3)c3ccccc31)c1ccccc12 (stereo not shown) [Compound XV]")
0.14
>>> quantitative_readout("CCCCN(CCCC)CCC[Si](C)(C)O[Si]1(O)n2c3c4ccccc4c2N=C2N=C(N=c4c5ccccc5c(n41)=NC1=NC(=N3)c3ccccc31)c1ccccc12 (stereo not shown) [Compound XXV, HOSiPcOSi(CH3)2 (CH2)3 N(CH2)3 CH3)2]")
1.5
>>> quantitative_readout("CC(=O)OCCC[Si](C)(C)O[Si]1(O)n2c3c4ccccc4c2N=C2N=C(N=c4c5ccccc5c(n41)=NC1=NC(=N3)c3ccccc31)c1ccccc12 (stereo not shown) [Compound XIII, HOSiPcOSi(CH3)2 (CH2)3 OCOCH3]")
1.7

Now for a further compound.
Request: Look at this compound and give its reported Uptake into V79 cells. C[Si](C)(CCCN1CCOCC1)O[Si]1(O)n2c3c4ccccc4c2N=C2N=C(N=c4c5ccccc5c(n41)=NC1=NC(=N3)c3ccccc31)c1ccccc12 (stereo not shown) [Compound XIX, HOSiPcOSi(CH3)2 (CH2)3 NC4 H8 O]
Response: 2.4

---

- Tested on: V79 cells
Param label: returns 1 (yes) when Uptake into V79 cells, composite value < 0.7 n Moles/10^6 cells/μM, returns 0 (no) otherwise, including exact equality.

Previously resolved entries follow.
>>> label_value("C[Si](C)(CCCCNS(C)(=O)=O)O[Si]1(O)n2c3c4ccccc4c2N=C2N=C(N=c4c5ccccc5c(n41)=NC1=NC(=N3)c3ccccc31)c1ccccc12 (centres unmarked)")
"1 (yes)"
>>> label_value("CCCCCCCCCCCC[N+](C)(C)CCC[Si](C)(C)[O][Al]1[n]2c3c4ccccc4c2N=C2N=C(N=c4c5ccccc5c([n]41)=NC1=NC(=N3)c3ccccc31)c1ccccc12.[I-]")
"0 (no)"
>>> label_value("C[Si](C)(CCCCN)O[Si]1(O[Si](C)(C)CCCCN)n2c3c4ccccc4c2N=C2N=C(N=c4c5ccccc5c(n41)=NC1=NC(=N3)c3ccccc31)c1ccccc12 [Compound VII, SiPc[OSi(CH3)2 (CH2)4 NH2]2]")
"1 (yes)"

Request: Record CN(C)CCC[Si](C)(C)O[Si]1(O[Si](C)(C)CCCN(C)C)n2c3c4ccccc4c2N=C2N=C(N=c4c5ccccc5c(n41)=NC1=NC(=N3)c3ccccc31)c1ccccc12 [Compound XII, SiPc[OSi(CH3)2 (CH2)3 N(CH3)2]2] : is its Uptake into V79 cells, composite value strictly below 0.7 n Moles/10^6 cells/μM?
Response: 0 (no)
